Values from ChEMBL document CHEMBL3885861

MCH values by entry
Species: Rattus norvegicus
assay-summary: Open TG-GATES - Regimen: Single
Assay type: toxicity, organism-based, Sprague-Dawley
Parameters: regimen Single, gender Male, age 6 weeks
run-parameters: in vivo, po, 0 mg/kg, 24 h, tissue Blood, route gavage, dose level Control
Write it as a number; the unit pg goes unstated.

[ask] Look up MCH of `CC1=C(/C=C/C(C)=C/C=C/C(C)=C/CO)C(C)(C)CCC1` and report it.
[reply] 21.9

[ask] Give me measured MCH, please, for this compound: `COC1=CC(=O)C[C@@H](C)[C@]12Oc1c(Cl)c(OC)cc(OC)c1C2=O`
[reply] 21.6

[ask] Quick one: give measured MCH for `CN(C)CCCN1c2ccccc2CCc2ccc(Cl)cc21`
[reply] 20.5

[ask] Kindly indicate its recorded MCH. Item: `CN(C)CCN(Cc1cccs1)c1ccccn1`
[reply] 21.2

[ask] # return recorded MCH for entry CCCNC(=O)NS(=O)(=O)c1ccc(Cl)cc1 [CHLORPROPAMIDE]
[reply] 21.7
